// data source = patent US6201116A

PROTOCOL TEXT: Fluorescence spectra / optical properties
Assay type: physicochemical
CONDITION DETAILS: Table 4
Experimental: Computations. In vitro fluorescence quenching studies were carried out at peak excitation and emission wavelengths. […] Fluorescence intensities in the absence (Fo) and presence (F) of quencher anion ([Q]) were measured to give the Stem-Volmer constant (Kq) as defined by: Fluorescence spectra reveal that LZQ and LMQ have broad excitation and emission peaks with maxima at 424 and 528 nm, respectively. […] In water (or saline), LZQ fluorescence was quenched by I^- with a Stem-Volmer constant of 60 M^-1. […]
MEASURED ENDPOINT: λem (emission wavelength) (nm)
Numeric only. Scale: nm

Below, 2 compounds whose answers are already recorded.
N=c1ccc2c(-c3ccccc3C(=O)O)c3ccc(N)cc3oc-2c1 [III, rhodamine-110, reference compound]
520
[O-]c1nc2c(N[C@@H]3O[C@H](CO)[C@@H](O)[C@H]3O)ncnc2[n+]2ccccc12 [I]
528

Item under review: Nc1ccc2nc3ccc(N)cc3[n+](-c3ccccc3)c2c1 [XIII, phenosafranine, reference compound] . Reported λem (emission wavelength)? 586

Item under review: C[n+]1c(-c2ccccc2)ccc2cc3ccc(-c4ccccc4)nc3cc21 [Compound VII] . Reported λem (emission wavelength)? 515
